Assay: rapamycin-like changes in RPL19A-GFP expression – cell-based, S. cerevisiae, multiplex flow cytometry, primary screen (AID 1862);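 also: lower values mimic rapamycin by blocking the RPL19A rise seen in DMSO cells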
Settings: S. cerevisiae RPL19A-GFP strain, flow cytometry fluorescence, 3 h; at 10 µM; stronger effect = lower value
Inconclusive results are not listed.
observationType: percent of DMSO control GFP (%)

>>> df
                                   molecule  endpointresult
0           Cc1ccccc1NC(=O)c1c(C)cc(=O)oc1C             106
1  O=C(/C=C/c1ccc(F)cc1)NC(=S)N1CCCCC1c1cccnc1 (stereo unspecified)             103
2  CN1CCN2c3ccccc3Cc3ccccc3C2C1 (stereo unspecified)            90.2
3  COc1ccc(CNC(=O)N[C@H](C(=O)O)C(C)C)cc1OC            92.6
4  CC(C)Oc1ccc(C2CC(=O)N(c3ccc(C(=O)O)cc3)C2=O)cc1 (stereo unspecified)            98.1
5                COc1ccc2oc(C)c(C(N)=O)c2c1            99.5

Cited source: PubChem BioAssay
